Reference source: ChEMBL document CHEMBL1201862

Test system: SK-MEL-5
experimentSummary: NCI tumour cell line growth inhibition, 48 h
Active and inactive are the calls of the source. Rule as the data show it: active = GI50 up to about 1.1 µM and inactive = higher.
Choose the fitting class; nothing outside active, inactive is accepted.

Short answer needed: outcome of this test for CC(=O)/C=C1\CC(=O)N(C)c2ccccc2N1 ?
active

Called result for O=C1C(Cl)=C(N2CCSCC2)C(=O)c2c(O)ccc(O)c21
active

Recorded test outcome, item COc1cc(/C=C(\NC(=O)c2ccccc2)c2nc3cncnc3[nH]2)cc(OC)c1OC
inactive

Could you check what this test reported for CSc1nc2nc(C)c(C)nc2c(=O)[nH]1 ?
inactive

Called result for COc1cc(C2c3cc4c(cc3OC(NNC(N)=O)C2C)OCO4)cc(OC)c1OC (configuration not stated)
active

Test call, this molecule: CN(C)CCCNc1c2ccccc2[n+]([O-])c2ccccc12
inactive

Dear colleague, could you share the recorded outcome for O=S1(=O)CS(=O)(=O)OCCO1 when you have a moment?
inactive

// outcome(item) with item = COc1cc(C)cc(C(=O)/C=C/c2ccccc2)c1O
inactive

For COc1cc2c(cc1O)c(O)cc1c3cc(OC)c(OC)cc3c[n+](C)c21 , what call appears in the results of this test?
inactive

How was C/C(NC(=O)c1ccccc1)=C(/C(=O)c1ccccc1)[C@@H]1OC(C)(C)O[C@@H]1[C@H]1COC(C)(C)O1 classified in this test?
inactive

Please share the test call associated with C#CCN(Cc1ccc2nc(-c3ccccc3)c(Cl)nc2c1)c1cc(OC)c(OC)c(OC)c1 .
inactive

GET /call?item= CCOc1ccc(-c2oc(/C=N/NS(=O)(=O)c3ccc(C)cc3)c([N+](=O)[O-])c2-c2ccc(OCC)cc2)cc1 returns the recorded outcome of this test.
inactive

I would be grateful if you could indicate the recorded call for O=c1[nH]nc(-c2ccc([N+](=O)[O-])cc2)n1/N=C/c1ccc([N+](=O)[O-])cc1 .
inactive

Record request — test call for Nc1ncc(/C=N/O)c(NCC2(CO)CC(CCc3ccccc3)C2)n1 (configuration not stated)
active

Per the records of this test, what outcome belongs to CCOC(=O)N1CCC(N[C@@H]2c3cc4c(cc3[C@@H](c3cc(OC)c(O)c(OC)c3)[C@H]3C(=O)OC[C@@H]32)OCO4)CC1 ?
active

In this assay, the call recorded for CC[C@@]12C=CC(=S)N(CCSc3ccccc3)[C@@H]1c1c(n(S(=O)(=O)c3ccc(OC)cc3)c3ccccc13)CC2 was what?
inactive

Recorded test outcome, item CC(=O)OCC(=O)[C@@]1(O)CC[C@H]2[C@@H]3C[C@H](C)C4=CC(=O)C=C[C@]4(C)[C@@]3(F)[C@@H](O)C[C@@]21C
inactive

How did this test come out for O=CNCNCCO ?
inactive

Assay result, entry COc1cc2c(cc1O)CC1c3c(cc(O)c(OC)c3-2)CCN1C (configuration not stated) — outcome?
inactive

Record lookup: outcome of this test for Cc1ccc(N2Cc3c(ccc4ccccc34)OP2(=O)Oc2ccc(Cl)c(C)c2)cc1 (configuration not stated) ?
inactive

Field: outcome | Entry: Cc1nc2ccc(S(=O)(=O)Nc3nccs3)cc2c(=O)n1NS(=O)(=O)c1nccs1
inactive

What is the recorded call for this molecule in the test? COC(=O)C1(C(=O)OC)N=C(C)OC1c1ccccc1O (configuration not stated)
inactive

Short answer needed: outcome of this test for COC(=O)/C=C(\C)CC/C=C(\C)CCC1OC1(C)C (configuration not stated) ?
inactive

For CN(C)Cc1cc(Cl)c(O)c(CN(C)C)c1 , what call appears in the results of this test?
inactive

Which outcome did this test record for the molecule Cc1cc(NS(=O)(=O)c2ccc(Nc3c4ccccc4nc4c(C(=O)N5CCN(CCOS(C)(=O)=O)CC5)cccc34)cc2)no1 ?
inactive

Look up the recorded call for CCN1CCC(O)(/C=C/c2ccc(C)cc2C)C(C(=O)/C=C/c2ccc(C)cc2C)C1 (configuration not stated) in this test.
inactive

Answer briefly: the call reported for CC[C@]12C=CCN3CCC4(c5cc([C@@]6(C(=O)OC)CC7CN(CCc8c6[nH]c6ccccc86)CC6CCCCC67)c(OC)cc5N(C)C4[C@](O)(C(=O)OC)C1OC(C)=O)[C@@H]32 (some centres not stated) in this assay.
active

Hi team, can someone confirm the assay call for COc1ccc(C(=O)N2CCN(c3ccc4c(c3)OCC(=O)N4)CC2)cc1OC ?
inactive

Identify the outcome logged in this assay for the molecule shown: C[C@]12CC/C(=N\O)C=C1CC[C@@H]1[C@@H]2CC[C@]2(C)C(=N/O)/C(=C/c3ccc([N+](=O)[O-])cc3)C[C@@H]12
inactive

Hey, what did the test say about Cc1nc2n(c1/C=C1/C(=O)Nc3cccc(Cl)c31)CCS2 ?
inactive

State the result this test recorded for COC(=O)Cc1c([C@H]2[C@H](CC(=O)OC)c3ccccc3N2C(=O)C(F)(F)F)[nH]c2ccccc12 .
inactive

Which result was noted for this molecule in the test: CC1OC(OCC2OC(Oc3c(-c4ccc(O)cc4)oc4cc(O)cc(O)c4c3=O)C(OC3OCC(O)(CO)C3O)C(O)C2O)C(O)C(O)C1O (configuration not stated)
inactive

Could you kindly confirm the outcome this assay logged for O=C(Nc1ccc2[nH]c(C(=O)N3CC(CCl)c4ccc([N+](=O)[O-])cc43)cc2c1)c1cc2ccccc2o1 (configuration not stated) ?
inactive

For this molecule, state the assay outcome: O=C1/C(=C/c2ccc(Oc3ccccc3)cc2)N=C(c2ccccc2)N1c1ccc(S(=O)(=O)Nc2nccs2)cc1
inactive

Write down the call the test reported for this molecule. Item: Cc1ccccc1N1C(=O)C2C=CC(n3[nH]c(=O)n(Cc4ccccc4)c3=O)CC2C1=O (configuration not stated)
inactive

Recorded call for Cc1ccc2nc3c(=O)[nH]c(=O)nc-3n(C)c2c1C ?
inactive

Dear all, I need the recorded test outcome for COC[n+]1cc2cc(OC)c(OC)cc2c2ccc3cc(OC)c(OC)cc3c21 , thank you.
inactive
